For each record, write down the corresponding pKd.
target: T1, human CD22 (d1 to d7 domain according to NP_001762.2) (human, UniProt P20273 20-687); assay: SPR; summary table, column 'CD22 KD (nM)'
T1 construct: domain: d1 to d7 domain; also called human CD22-gly; Siglec-2
One number for each entry, as −log10 of the molar value.

These solved cases illustrate the format of a correct answer.
>>> reported_value("TNT77 (antibody, human IgG1, kappa, V domains shown) VH: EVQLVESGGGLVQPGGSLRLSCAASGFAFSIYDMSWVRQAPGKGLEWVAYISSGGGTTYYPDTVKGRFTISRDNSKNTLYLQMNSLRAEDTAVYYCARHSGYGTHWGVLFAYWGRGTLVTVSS VL: DIQMTQSPSSLSASVGDRVTITCRASQSISSYLNWYQQKPGKAPKLLIYAASSLQSGVPSRFSGSGSGTDFTLTISSLQPEDFATYYCQQGNTLPWTFGQGTKLEIKR")
8.00
>>> reported_value("TNT78 (antibody, human IgG1, kappa, V domains shown) VH: QVQLLESGGGVVQPGGSLRLSCAASGFAFSIYDMNWVRQAPGKGLEWVSAISSGGGTTYYADSVKGRFTISRDNAKNSLYLQMNSLRAEDTAVYYCARHSGYGTHWGVLFAYWGRGTLVTVSS VL: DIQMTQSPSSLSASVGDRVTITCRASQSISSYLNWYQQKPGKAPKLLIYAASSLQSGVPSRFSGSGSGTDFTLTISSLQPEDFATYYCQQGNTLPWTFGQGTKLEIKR")
7.60

Let's switch to this binder now.
What value of pKd has been recorded for this entry: TNT86 (antibody, human IgG1, kappa, V domains shown) VH: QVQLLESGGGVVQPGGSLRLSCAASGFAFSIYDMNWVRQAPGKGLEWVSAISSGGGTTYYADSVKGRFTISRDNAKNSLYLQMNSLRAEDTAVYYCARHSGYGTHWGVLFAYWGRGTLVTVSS VL: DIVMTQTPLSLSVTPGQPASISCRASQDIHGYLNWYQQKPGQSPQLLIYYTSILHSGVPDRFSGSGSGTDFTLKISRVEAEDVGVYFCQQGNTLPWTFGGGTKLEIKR
8.96
